Biological target: 5-HT1A receptor (Rattus norvegicus, UniProt P19327)
Construct: 15 μg/mL of hippocampus homogenate was incubated in triplicate with 0.8 nM; from tissue; host or cells: rat hippocampus homogenate
Sequence (P19327 whole entry): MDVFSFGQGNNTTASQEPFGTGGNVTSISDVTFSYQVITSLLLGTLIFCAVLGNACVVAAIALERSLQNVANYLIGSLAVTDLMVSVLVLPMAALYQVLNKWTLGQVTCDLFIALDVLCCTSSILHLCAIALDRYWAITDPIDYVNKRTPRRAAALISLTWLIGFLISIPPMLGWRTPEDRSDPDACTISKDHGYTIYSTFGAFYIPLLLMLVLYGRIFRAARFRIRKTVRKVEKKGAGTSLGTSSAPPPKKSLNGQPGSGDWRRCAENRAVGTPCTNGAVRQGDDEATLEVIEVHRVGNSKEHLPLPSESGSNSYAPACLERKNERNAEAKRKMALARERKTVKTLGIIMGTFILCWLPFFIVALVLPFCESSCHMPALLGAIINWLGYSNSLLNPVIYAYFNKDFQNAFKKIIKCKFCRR
Experiment: Functional 5-HT1A receptor [35S]GTPγS assay (agonist mode)
Format: biochemical
Conditions: [35S]GTPγS, rat hippocampus homogenate
MEASURED_PROPERTY: 5-HT1A Receptor G-Protein Stimulation Emax (%) ± SEM

The molecule COc1ccccc1N1CCN(CCCNC(=O)C2CC3C=CC2C3)CC1 (single isomer, unassigned) [Norbo-5] showed 5-HT1A Receptor G-Protein Stimulation Emax (%) ± SEM equal to 140 ± 25.2 ^&& %

The molecule O=C(NCCCN1CCN(c2ccccc2F)CC1)C1CC2C=CC1C2 (stereo not drawn) [Norbo-16] showed 5-HT1A Receptor G-Protein Stimulation Emax (%) ± SEM equal to 182 ± 5.5 **^,# %

----------
Target: 5-HT2A receptor (Rattus norvegicus, UniProt P14842)
Sequence (P14842 whole entry): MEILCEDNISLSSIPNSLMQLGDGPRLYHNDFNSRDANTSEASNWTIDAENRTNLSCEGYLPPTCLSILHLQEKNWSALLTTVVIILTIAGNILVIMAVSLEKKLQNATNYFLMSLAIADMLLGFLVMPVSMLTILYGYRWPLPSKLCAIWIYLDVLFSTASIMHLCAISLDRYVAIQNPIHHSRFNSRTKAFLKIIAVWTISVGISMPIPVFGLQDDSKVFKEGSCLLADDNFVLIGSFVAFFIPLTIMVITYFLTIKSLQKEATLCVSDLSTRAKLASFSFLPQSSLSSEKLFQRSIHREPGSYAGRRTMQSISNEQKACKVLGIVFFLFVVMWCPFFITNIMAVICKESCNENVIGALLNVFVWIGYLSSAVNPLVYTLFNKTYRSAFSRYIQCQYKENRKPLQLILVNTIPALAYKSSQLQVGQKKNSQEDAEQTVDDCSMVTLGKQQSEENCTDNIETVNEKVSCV
Experiment: 5-HT2A competition binding assay ([3H]ketanserin, frontal cortex homogenates)
Settings: read-out: 5-HT2A Ki (95% CI)
MEASURED_PROPERTY: pKi
For clarity, pKi is expressed as the negative log10 of concentration in mol/L.

The compound O=C(NCCCN1CCN(c2ncccn2)CC1)C1CC2C=CC1C2 (centres unmarked) [Norbo-23] showed pKi equal to 5.96

The compound O=C(NCCCN1CCN(c2ccccc2Cl)CC1)C1CC2C=CC1C2 (centres unmarked) [Norbo-10] showed pKi equal to 6.59

The compound COc1ccc(N2CCN(CCCNC(=O)C3CC4C=CC3C4)CC2)cc1 (centres unmarked) [Norbo-8] showed pKi equal to 6.90

The compound COc1ccccc1N1CCN(CCCNC(=O)C2CC3C=CC2C3)CC1 (single isomer, unassigned) [Norbo-5] showed pKi equal to 7.34

The compound O=C(NCCCN1CCN(c2ccccc2F)CC1)C1CC2C=CC1C2 (centres unmarked) [Norbo-15] showed pKi equal to 7.08

----------
Molecular target: 5-HT1A receptor (Rattus norvegicus)
Construct: 15 μg/mL of hippocampus homogenate was incubated in triplicate with 0.8 nM; from tissue; host or cells: rat hippocampus homogenate
Test: Functional 5-HT1A receptor [35S]GTPγS assay (agonist mode);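 also: male Sprague-Dawley rat hippocampal membranes incubated 90 min at 37 °C, bound label counted by scintillation after filtration, non-specific binding defined with 100 µM unlabeled GTPγS, one-site curve fit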
Format: biochemical
Conditions: [35S]GTPγS, rat hippocampus homogenate
MEASURED_PROPERTY: 5-HT1A Receptor G-Protein Stimulation Emax (%) ± SEM

>  <COMPOUND>
O=C(NCCCN1CCN(c2ccc(F)cc2)CC1)C1CC2C=CC1C2 (stereo not shown) [Norbo-18]

>  <REPORTED_MEASUREMENT>
143 ± 5.1 ^&&& %

$$$$
>  <COMPOUND>
O=C(NCCCN1CCN(c2ccc(Cl)cc2)CC1)C1CC2C=CC1C2 (stereo not shown)

>  <REPORTED_MEASUREMENT>
no activity

$$$$
>  <COMPOUND>
O=C(NCCCN1CCN(c2ccc(F)cc2)CC1)C1CC2C=CC1C2 (stereo not shown) [Norbo-17]

>  <REPORTED_MEASUREMENT>
122 ± 2.0 ^&&& %

$$$$
>  <COMPOUND>
O=C(NCCCN1CCN(c2ccc(Cl)c(Cl)c2)CC1)C1CC2C=CC1C2 (stereo not shown)

>  <REPORTED_MEASUREMENT>
no activity

$$$$
